PROTOCOL_DESCRIPTION: Pharmacokinetic test in rats
Format: in vivo
STATED_CONDITIONS: rat; male SD rats, intravenous administration (2.5 mg/kg), plasma; read-out: Vdss
ASSAY_READOUT: Vd (L/kg)
Please give a number only; it is taken to be in L/kg.

These solved cases illustrate the format of a correct answer.
{"SMILES_REPR": "O=C(OC1CC1)N1CCC(CCOc2cc(CN3Cc4ccc(C(F)(F)F)cc4C3)ccn2)CC1", "ASSAY_READOUT": "Vd", "UNIT_OF_MEASUREMENT": "L/kg", "TEST_RESULT": 9.21}
{"SMILES_REPR": "O=C(N[C@H]1CC[C@H](CCOc2cc(CN3Cc4ccc(C5CC5)cc4C3)ccn2)CC1)C1CC1", "ASSAY_READOUT": "Vd", "UNIT_OF_MEASUREMENT": "L/kg", "TEST_RESULT": 0.951}
{"SMILES_REPR": "N#Cc1cc(CN2Cc3ccc(C(F)(F)F)cc3C2)cc2cc(C3CCN(C(=O)OC4CC4)CC3)oc12", "ASSAY_READOUT": "Vd", "UNIT_OF_MEASUREMENT": "L/kg", "TEST_RESULT": 8.06}

Field: next molecule
Ask | Please report the recorded Vd for O=C(N[C@H]1CC[C@H](CCOc2cc(CN3Cc4ccc(C(F)(F)F)cc4C3)ccn2)CC1)C1CC1 .
Reply | 8.8
